- System: HT-1080 cells
- measurement protocol: Lethality of commercially available CIL41/70 structural analogs
- Assay type: cell-based
- condition summary: Homo sapiens, tested once in technical triplicates
- Experimental: 1,000 cells per 36 μl were seeded in each well in 384-well plates. Lethal compounds were dissolved, and a twofold, 12-point dilution series was prepared in DMSO. […] When the effect of a chemical modulator (M) on L was calculated, we instead used the equation VL|M=(IM,L−I0)/(IM,V−I0), where VL|M, IM,L and IM,V are the normalized viability, and fluorescence intensity from cells treated with M and V, and from cells with M and L, respectively. […]
Each item that follows carries a reported EC50.
The answer is to be given in µg/mL; state only the numeric part.

INSERT INTO results (mol, quantity, numeric_value) VALUES
  ('COc1ccccc1C/C(N)=N/OC(=O)COc1cc(C)c(Cl)c(C)c1', 'EC50', 7.23);

Moving on to the next molecule.
Prompt: I have this molecule here, `CC(C)(C)C(=O)O/N=C(\N)Cc1ccc(-c2csnn2)cc1` , and I need its recorded EC50.
Response: 6.48
